# Test system: beet armyworm (Spodoptera exigua)
# METHOD_DESCRIPTION: Insecticidal test for beet armyworm in injection assays
# ASSAY_CONTEXT: 1 h, read-out: BAW SYM: % showing intoxicated symptoms at 10 μg/larva against beet armyworm in injection tests
# pest or weed control at 0.01 mg values compiled below

// output pest or weed control at 0.01 mg; input CS(=O)(Cc1ccc(Cl)nc1)=NC#N (centres unmarked) [Compound 10] ; system beet armyworm (Spodoptera exigua) < 50%

Fetch value of pest or weed control at 0.01 mg on beet armyworm (Spodoptera exigua) for CS(=O)(=NC#N)C(Br)c1ccc(Cl)nc1 (centres unmarked) [Compound 24] . < 50%

Fill in: pest or weed control at 0.01 mg on beet armyworm (Spodoptera exigua), entry CC[S@@](=O)(C[C@H](C)c1ccc(Cl)nc1)=NC#N [Compound 16] < 50%

Provide beet armyworm (Spodoptera exigua) pest or weed control at 0.01 mg reading for N#CN=[S@@]1(=O)CCCC1Cc1ccc(Cl)nc1 (some centres unmarked) [Compound 20] . 80 to 89%

Report pest or weed control at 0.01 mg from beet armyworm (Spodoptera exigua) testing of N#CN=S1(=O)CCCCC1Cc1ccc(Cl)nc1 (centres unmarked) [Compound 5] 50 to 59%

Further cases:
State pest or weed control at 0.01 mg on beet armyworm (Spodoptera exigua). Entry: N#CN=S1(=O)CCCC1 [Compound 12] 90 to 100%

With beet armyworm (Spodoptera exigua) as the test system, provide measured pest or weed control at 0.01 mg for this compound: CCC(c1ccc(Cl)nc1)S(C)(=O)=NC#N (centres unmarked) [Compound 26] < 50%

Please look at O=[N+]([O-])N=S1(=O)CCCC1Cc1ccc(Cl)nc1 (centres unmarked) [Compound 35] and tell me its recorded pest or weed control at 0.01 mg on beet armyworm (Spodoptera exigua). < 50%

* * *

# System: green peach aphid (Myzus persicae)
# METHOD_DESCRIPTION: Insecticidal test for green peach aphid, foliar spray on cabbage seedlings
# ASSAY_CONTEXT: 0.195 ppm, rundown assay, 3 days
ENDPOINT: % Control at ppm, against green peach aphid: 0.195

Dear colleague, please send me the reported % Control at ppm, against green peach aphid: 0.195 for N#CN=[S@@]1(=O)CCCC1Cc1ccc(Cl)nc1 (some centres unmarked) [Compound 20] when you can. F (Less than 50)

Note % Control at ppm, against green peach aphid: 0.195 for the compound shown: O=[N+]([O-])N=[S@@]1(=O)CCCC1Cc1ccc(Cl)nc1 (some centres unmarked) [Compound 41] F (Less than 50)

* * *

# System: sweet potato whitefly (Bemisia tabaci)
# METHOD_DESCRIPTION: Insecticidal test for sweet potato whitefly, foliar spray on cotton
# ASSAY_CONTEXT: 2-3.13 ppm, rundown assay
ENDPOINT: % Control at ppm, against sweet potato whitefly: 2-3.13

Provide only the value of recorded % Control at ppm, against sweet potato whitefly: 2-3.13 for CC(c1ccc(Cl)nc1)[S@](C)(=O)=NC#N (some centres unmarked) [Compound 29] A (90-100)

Using the record for C[C@H](c1ccc(Cl)nc1)[S@](C)(=O)=NC#N [Compound 28] , state its measured % Control at ppm, against sweet potato whitefly: 2-3.13. A (90-100)

Provide measured % Control at ppm, against sweet potato whitefly: 2-3.13 value, entry: CC(c1ccc(Cl)nc1)S(C)(=O)=NC#N (centres unmarked) [Compound 8] A (90-100)

Measured values drawn from patent US7795456B2 for this set.
